Every entry's value here was drawn from PubChem BioAssay AID1159580.

experiment: chemical genetic growth profiling, strain panel (AID 1159580);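 also: tested at 20 µM; growth read once vehicle control cultures reached saturation at 30 °C; 1 = growth at the plate median or of vehicle wells; lower values mean less growth of the strain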; settings: S. cerevisiae deletion strains, growth OD, locus YOR106W, strain vam3, active compounds read low
About 2,000 (36%) of roughly 5,500 compounds were called active. Roughly 18% stayed inconclusive and do not appear here. This is one part of the list.
Examples of compounds with documented normalized growth follow.
Please reply with the number alone, leaving off any unit.

For orientation, consider the following solved cases.
compound	normalized growth
CO/N=C1/CN(c2nc3c(cc2F)c(=O)c(C(=O)O)cn3C2CC2)CC1CN (stereo not given)	0.993
CC[C@]1(O)CC2CN(CCc3c([nH]c4ccccc34)[C@@](C(=O)OC)(c3cc4c(cc3OC)N(C)[C@H]3[C@@](O)(C(=O)OC)[C@H](OC(C)=O)[C@]5(CC)C=CCN6CC[C@]43[C@@H]65)C2)C1 (stereo not given in full)	1.03
COc1c(N2CCNC(C)C2)c(F)cc2c(=O)c(C(=O)O)cn(C3CC3)c12 (stereo not given)	0.994
C[C@H]1COc2c(N3CCN(C)CC3)c(F)cc3c(=O)c(C(=O)O)cn1c23	1.01

--- query ---
## Input Tell me its normalized growth given `CCn1cc(C(=O)O)c(=O)c2cc(F)c(N3CCNCC3)nc21` as the entry.
## Output 0.988

---

assay: chemical genetic growth profiling, strain panel (AID 1159580); details: S. cerevisiae deletion strains, growth OD, locus YGR135W, strain pre9, active compounds read low
The whole screen tested about 5,500 compounds, of which about 2,000 (36%) were called active. About 18% were inconclusive and are not listed. Some of the results follow.
# normalized growth listing for each entry below
Form: value (number only, do not type unit).

## Input Please give measured normalized growth of the following entry: OCC(O)CN1CCN(c2ccccc2)CC1 (stereo not given)
## Output 0.98

## Input Please indicate normalized growth recorded for `CCN(CC)C(=O)N1CCN(C)CC1`
## Output 0.996

## Input Tell me measured normalized growth for Cn1c(=O)c2c(ncn2CC(O)CO)n(C)c1=O (stereo not given) please.
## Output 0.954

## Input Quick one: give measured normalized growth for `C[C@@H]1O[C@@H](O[C@H]2[C@H](Oc3cc(O)c4c(=O)cc(-c5ccc(O)cc5)oc4c3)O[C@H](CO)[C@@H](O)[C@@H]2O)[C@H](O)[C@H](O)[C@H]1O`
## Output 1.02

## Input Read off the recorded normalized growth for `CN1CC(CO)=C[C@@H]2c3cccc4[nH]cc(c34)C[C@H]21`
## Output 0.985

---

assay: chemical genetic growth profiling, strain panel (AID 1159580); settings: S. cerevisiae deletion strains, growth OD, locus YGL167C, strain pmr1, active compounds read low
In all, about 5,500 compounds went through this assay and about 2,000 (36%) were called active. Not shown: some 18% with an inconclusive outcome. Some of the results follow.
quantity.kind: normalized growth
Note: the reply should be a number with no unit written.

## Input Report normalized growth, nothing else, for this compound: COC(=O)C1=COC(OC2OC(CO)C(O)C(O)C2O)C2C(C)CC(=O)C12 (stereo not given)
## Output 1.03

## Input Look up normalized growth of `Nc1nc(=S)c2[nH]cnc2[nH]1` and report it.
## Output 0.979

## Input Consider the compound `NS(=O)(=O)c1cc2c(cc1Cl)NC=NS2(=O)=O` . State its measured normalized growth.
## Output 0.993

## Input # return recorded normalized growth for input `CC[C@@H]1C=C/C=C/C[C@H](C)[C@@H](O)[C@](C)(O)C(=O)[C@H](C)[C@@H](O)[C@H](C)C(=O)[C@H](C)[C@@H](O)[C@H](C)/C=C/C(=O)O[C@H]2[C@@H](C)[C@@H](CC1)O[C@@]1(CC[C@@H](C)[C@@H](C[C@H](C)O)O1)[C@@H]2C`
## Output 1.01

## Input In one line, give reported normalized growth of the entry CN(C)CCCC1(c2ccc(F)cc2)OCc2cc(C#N)ccc21 (stereo not given) .
## Output 0.99

---

assay: chemical genetic growth profiling, strain panel (AID 1159580);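 also: tested at 20 µM; growth read once vehicle control cultures reached saturation at 30 °C; 1 = growth at the plate median or of vehicle wells; lower values mean less growth of the strain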; details: S. cerevisiae deletion strains, growth OD, locus YNL209W, strain ssb2
The campaign covered roughly 5,500 compounds. About 2,000 (36%) were called active. Roughly 18% stayed inconclusive and do not appear here. Rule as the data show it: active = normalized growth mostly below about 0.91 (no sharp cut-off); inconclusive = no clear call, values can overlap the other calls; inactive = mostly above about 0.92. The list shows a part of the results.
Choose one outcome from this list and give only that: active, inactive

molecule	classification
COc1ccc2c(c1)OC1(O)COc3cc(OC)c(OC)cc3C1=C2 (centres undefined)	inactive
CC[C@@H](C(=O)C(C)[C@@H](O)[C@H](C)CCc1ccc(C)c(O)c1C(=O)O)C1OC(CC)(C2CC[C@](O)(CC)[C@H](C)O2)C[C@@H]1C (some centres undefined)	inactive
C=C1CCC2[C@](C)(CO)[C@H](O)CC[C@@]2(C)[C@@H]1C/C=C1/C(=O)OC[C@H]1O (some centres undefined)	inactive
O=C(O[C@@H]1Cc2c(O)cc(O)cc2O[C@@H]1c1ccc(O)c(O)c1)c1cc(O)c(O)c(O)c1	active
CC(=O)Oc1cc(OC(C)=O)c2c(c1)O[C@H](c1ccc(OC(C)=O)c(OC(C)=O)c1)[C@@H](OC(C)=O)C2	inactive

## Input What did this assay record as the result for CCN1CCCC(OC(=O)C(c2ccccc2)c2ccccc2)C1 (centres undefined) ?
## Output inactive

## Input Tell me the recorded outcome of this test for C=C[C@@](C)(O)CCC1C(=C)C[C@H](O)C2C(C)(C)CCCC12C (some centres undefined) .
## Output inactive

## Input Dear all, I need the recorded test outcome for `COc1ccc(-c2coc3cc(O)ccc3c2=O)c(O)c1O` , thank you.
## Output active

## Input Outcome? `NCCc1cnc[nH]1`
## Output inactive

---

assay: chemical genetic growth profiling, strain panel (AID 1159580);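 also: tested at 20 µM; growth read once vehicle control cultures reached saturation at 30 °C; 1 = growth at the plate median or of vehicle wells; lower values mean less growth of the strain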; conditions: S. cerevisiae deletion strains, growth OD, locus YDL134C, strain PPH21, active compounds read low
Hit rate of the full screen: of about 5,500 compounds, about 2,000 (36%) were called active. Another 18% or so got no clear call; they are omitted. Some of the results follow.
In this section, each of the molecules is paired with its reported normalized growth.
Please reply with the number alone, leaving off any unit.

Below are worked cases with known answers.
molecule	normalized growth
CC1COc2c(N3CCN(C)CC3)c(F)cc3c(=O)c(C(=O)O)cn1c23 (stereo not given)	1.01
C=C[C@@](C)(O)CCC1C(=C)CCC2[C@@](C)(CO)CCC[C@]12C (stereo not given in full)	0.979
CCn1cc(C(=O)O)c(=O)c2cc(F)c(N3CCNC(C)C3)c(F)c21 (stereo not given)	0.985
CC1CCc2cc(F)cc3c(=O)c(C(=O)O)cn1c23 (stereo not given)	0.975
COC(=O)[C@@H]1OC(=O)C2OC23[C@@]1(C)CCC1[C@]2(C)C(C[C@H](O)[C@]13C)C(C)(C)[C@H](OC(C)=O)C[C@@H]2OC(C)=O (stereo not given in full)	1

## Input Name the recorded normalized growth of the item `O=C(O)c1cncc(C#Cc2ccccc2)c1` in your answer.
## Output 1.01

## Input Provide measured normalized growth value, entry: `Clc1ccc(C(c2ccc(Cl)cc2)C(Cl)(Cl)Cl)cc1`
## Output 1.02

## Input Using the record for `C[C@H]1COc2c(N3CCN(C)CC3)c(F)cc3c(=O)c(C(=O)O)cn1c23` , state its measured normalized growth.
## Output 1.01

## Input Provide measured normalized growth value, entry: COc1ccc2c(c1)OC1(O)COc3cc(OC)c(OC)cc3C1=C2 (stereo not given)
## Output 1.01

## Input Answer with the recorded normalized growth for the molecule listed here: `CCn1cc(C(=O)O)c(=O)c2cc(F)c(N3CCNCC3)nc21`
## Output 1.03

---

assay: chemical genetic growth profiling, strain panel (AID 1159580);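 also: tested at 20 µM; growth read once vehicle control cultures reached saturation at 30 °C; 1 = growth at the plate median or of vehicle wells; lower values mean less growth of the strain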; settings: S. cerevisiae deletion strains, growth OD, locus YAL021C, strain ccr4, active compounds read low
Hit rate of the full screen: of about 5,500 compounds, about 2,000 (36%) were called active. Roughly 18% stayed inconclusive and do not appear here. The list shows a part of the results.
Field 'label' (enum: true (1) / false (0)). Set to true (1) when normalized growth is strictly under 1; else false (0).

## Input # check: normalized growth < 1 for `C[n+]1c2cc(N)ccc2cc2ccc(N)cc21`
## Output true (1)

## Input Is 1 strictly greater than the compound's reported normalized growth? compound: `Cc1ccc(C(=O)Nc2ccc(S(=O)(=O)O)c3cc(S(=O)(=O)O)cc(S(=O)(=O)O)c23)cc1NC(=O)c1cccc(NC(=O)Nc2cccc(C(=O)Nc3cc(C(=O)Nc4ccc(S(=O)(=O)O)c5cc(S(=O)(=O)O)cc(S(=O)(=O)O)c45)ccc3C)c2)c1`
## Output false (0)

## Input Problem: For the compound `O=C1C(Cl)=C(Cl)C(=O)C(Cl)=C1Cl` , is normalized growth under 1?
## Output true (1)

## Input I'd appreciate it if you could check whether `O=S(=O)(O)c1cc(N=C=S)ccc1/C=C/c1ccc(N=C=S)cc1S(=O)(=O)O` has normalized growth smaller than 1.
## Output false (0)
